assay: chemical genetic growth profiling, strain panel (AID 1159580);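 further: tested at 20 µM; growth read once vehicle control cultures reached saturation at 30 °C; 1 = growth at the plate median or of vehicle wells; lower values mean less growth of the strain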; settings: S. cerevisiae deletion strains, growth OD, locus YMR223W, strain ubp8, stronger effect = lower value
Out of some 5,500 compounds screened, about 2,000 (36%) were called active. Not shown: some 18% with an inconclusive outcome. The list shows a part of the results.
Here, each record is paired with measured normalized growth data.
Returns: the value as a bare number; no unit string appended.

Use the examples below as a reference point.
{"molecule": "CC1CC2C3CC(F)C4=CC(=O)C=CC4(C)C3(F)C(O)CC2(C)C1C(=O)COC(=O)C(C)(C)C (stereo not given)", "normalized growth": 0.965}
{"molecule": "C[C@@H]1CC2C3C[C@H](F)C4=CC(=O)C=C[C@]4(C)[C@@]3(F)[C@@H](O)C[C@]2(C)[C@@]1(O)C(=O)COC(=O)C(C)(C)C (stereo not given in full)", "normalized growth": 1.04}
{"molecule": "Cc1cccc(Nc2ccncc2S(=O)(=O)NC(=O)NC(C)C)c1", "normalized growth": 1.03}
{"molecule": "COC(=O)CCCOc1ccc(Cl)cc1Cl", "normalized growth": 1.01}
{"molecule": "COC(=O)c1c(C)cc(OC(=O)c2c(C)cc(O)c(C=O)c2O)c(C)c1O", "normalized growth": 0.938}
{"molecule": "Clc1ccc2c(c1)C(N1CCNCC1)=Nc1ccccc1O2", "normalized growth": 0.962}
{"molecule": "CCN(CCCc1ccccc1)CCCc1ccccc1", "normalized growth": 1.02}
{"molecule": "CC[C@H](CCC(C)[C@H]1CCC2C3CCC4C[C@@H](O)CC[C@]4(C)C3CC[C@@]21C)C(C)C (stereo not given in full)", "normalized growth": 0.988}
{"molecule": "NNCCc1ccccc1", "normalized growth": 0.95}
{"molecule": "COc1cc(C)c(C(=O)Oc2cc(C)c(C(=O)O)c(O)c2C)c(OC)c1C", "normalized growth": 0.994}

## Task Need normalized growth, item CN1CCN(C2=Nc3ccccc3Oc3ccc(Cl)cc32)CC1
## Result 0.976

## Task Again, but for COC(=O)CCC(C)[C@H]1CCC2C3C(C[C@H](O)[C@@]21C)[C@@]1(C)CC[C@@H](O)C[C@H]1C[C@H]3O (stereo not given in full)
## Result 0.996

## Task Again, but for CCOC(=O)[C@H](CCc1ccccc1)N[C@@H](C)C(=O)N1Cc2ccccc2C[C@H]1C(=O)O
## Result 1.02

## Task Again, but for COc1cc([C@H]2Oc3cc([C@H]4Oc5cc(O)cc(O)c5C(=O)[C@@H]4O)ccc3O[C@@H]2CO)ccc1O
## Result 0.958

## Task Again, but for CN(C(=O)CN(CCO)CC(=O)N(C)C(C)(C)Cc1ccccc1)C(C)(C)Cc1ccccc1
## Result 0.97
